// data source = patent US8343934B2

Item-by-item account of % Response
- SYSTEM: ATX (Homo sapiens, UniProt Q13822)
- Construct: conditioned serum-free medium (CCM) from MDA-MB-435 cells as the source of ATX; endogenous in cells; host or cells: MDA-MB-435 cells (about 10x concentrated conditioned serum-free medium)
- EXPERIMENT_NOTES: ATX inhibition assay (FS-3 substrate)
- Assay type: biochemical
- APPLIED_CONDITIONS: preliminary screen; FS-3 hydrolysis at one hour, normalized to vehicle control, mean±S.D.; same values given at 10 μM in Table 5
PROPERTY: % Response (%)

- MOLECULAR_STRING: "Cc1cc(-c2ccc(N=Nc3c(N)c(S(=O)(=O)O)cc4cc(S(=O)(=O)O)ccc34)c(C)c2)ccc1N=Nc1cc(S(=O)(=O)O)c2ccccc2c1N"
  VALUE_UNIT: "%"
  TEST_VALUE: 32
- MOLECULAR_STRING: "Nc1ccc2cc(S(=O)(=O)[O-])c(N=Nc3ccc(-c4ccc(N=Nc5c(S(=O)(=O)[O-])cc6cc(S(=O)(=O)[O-])c(N=Nc7cccc([N+](=O)[O-])c7)c(N)c6c5O)cc4)cc3)c(O)c2c1.[Na+].[Na+].[Na+]"
  VALUE_UNIT: "%"
  TEST_VALUE: 35
- MOLECULAR_STRING: "Nc1ccc(N=Nc2ccc(-c3ccc(N=Nc4c(S(=O)(=O)[O-])cc5cc(S(=O)(=O)[O-])c(N=Nc6ccc([N+](=O)[O-])cc6)c(N)c5c4O)cc3)cc2)c2cc(S(=O)(=O)[O-])ccc12.[Na+].[Na+].[Na+]"
  VALUE_UNIT: "%"
  TEST_VALUE: 39
